- Measurement Target: T1, human SLC34A2 (human, UniProt O95436 1-690)
- T1 construct: whole, on cells; also called human solute carrier 34 A2; NaPi2b
- T1 sequence (looked up): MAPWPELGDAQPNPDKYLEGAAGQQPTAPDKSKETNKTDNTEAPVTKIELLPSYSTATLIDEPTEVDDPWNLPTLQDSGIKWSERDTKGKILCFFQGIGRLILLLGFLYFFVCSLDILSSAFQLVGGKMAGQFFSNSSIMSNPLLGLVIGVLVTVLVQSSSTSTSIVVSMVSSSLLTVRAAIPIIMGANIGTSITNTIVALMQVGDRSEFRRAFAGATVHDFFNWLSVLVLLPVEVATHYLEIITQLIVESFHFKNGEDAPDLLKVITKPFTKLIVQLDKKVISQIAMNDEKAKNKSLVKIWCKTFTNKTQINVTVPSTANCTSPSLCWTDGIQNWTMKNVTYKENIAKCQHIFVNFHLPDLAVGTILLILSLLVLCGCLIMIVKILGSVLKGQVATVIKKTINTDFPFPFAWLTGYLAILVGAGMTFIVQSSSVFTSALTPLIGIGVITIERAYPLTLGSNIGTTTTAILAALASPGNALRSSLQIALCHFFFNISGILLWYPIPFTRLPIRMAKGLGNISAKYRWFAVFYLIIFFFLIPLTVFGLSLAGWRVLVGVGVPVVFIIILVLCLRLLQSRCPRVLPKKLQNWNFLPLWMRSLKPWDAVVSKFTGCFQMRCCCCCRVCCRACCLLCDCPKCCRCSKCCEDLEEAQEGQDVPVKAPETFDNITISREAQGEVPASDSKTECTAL
- Assay Notes: FACS, OVCAR3 cells
Assay Metric: Top (MFI)
Write the value in MFI as a bare number.

Some solved cases for reference:
- Binder: "30H9B8F9.p1.z14 hIgG1 (antibody, V domains shown, humanized hIgG1) VH: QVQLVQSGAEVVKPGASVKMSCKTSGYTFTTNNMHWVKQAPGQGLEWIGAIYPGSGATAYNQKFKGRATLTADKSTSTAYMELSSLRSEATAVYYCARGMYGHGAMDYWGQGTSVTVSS VL: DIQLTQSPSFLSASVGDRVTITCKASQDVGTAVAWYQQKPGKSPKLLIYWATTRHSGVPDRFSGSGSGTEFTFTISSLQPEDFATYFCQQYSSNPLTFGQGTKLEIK"
  Recorded Result: 27300
- Binder: "30H9B8F9.p1.z4 hIgG1 (antibody, V domains shown, humanized hIgG1) VH: QVQLVQSGAEVKKPGASVKVSCKASGYTFTTNNMHWVRQAPGQGLEWMGAIYPGSGATAYNQKFKGRVTMTRDTSTSTVYMELSSLRSEDTAVYYCASGMYGHGAMDYWGQGTLVTVSS VL: DIVMTQSPSFLSASVGDRVTITCKASQDVGTAVAWYQQKPGKSPKLLIYWATTRHSGVPDRFTGSGSGTDFIFTISSVQPEDFATYFCQQYSSNPLTFGAGTKLEIK"
  Recorded Result: 20400
- Binder: "62G10E4G8.p3.z14 hIgG1 (antibody, V domains shown, humanized hIgG1) VH: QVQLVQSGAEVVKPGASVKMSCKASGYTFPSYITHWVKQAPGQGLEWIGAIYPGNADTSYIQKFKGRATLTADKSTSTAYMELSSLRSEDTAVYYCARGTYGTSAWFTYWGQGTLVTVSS VL: EIVMTQSPATLSVSPGERATLSCRARQNIGNNLYWYQQKPGQSPRLLIKYASQSISGIPARFSGSGSGTEFTLTISSLQSEDFAVYFCQQSFSWPLTFGQGTKLEIK"
  Recorded Result: 27900
- Binder: "62G10E4G8.p3.z11 hIgG1 (antibody, V domains shown, humanized hIgG1) VH: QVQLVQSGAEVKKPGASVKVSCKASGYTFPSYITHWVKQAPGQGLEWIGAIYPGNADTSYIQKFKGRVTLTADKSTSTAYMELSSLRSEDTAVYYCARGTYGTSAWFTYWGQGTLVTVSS VL: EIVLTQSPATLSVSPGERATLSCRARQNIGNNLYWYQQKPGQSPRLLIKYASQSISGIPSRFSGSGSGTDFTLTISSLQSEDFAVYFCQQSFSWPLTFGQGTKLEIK"
  Recorded Result: 28200
- Binder: "62G10E4G8.p3.z3 hIgG1 (antibody, V domains shown, humanized hIgG1) VH: QVQLVQSGAEVKKPGASVKVSCKASGYTFPSYITHWVRQAPGQGLEWMGAIYPGNADTSYIQKFKGRVTMTRDTSTSTVYMELSSLRSEDTAVYYCARGTYGTSAWFTYWGQGTLVTVSS VL: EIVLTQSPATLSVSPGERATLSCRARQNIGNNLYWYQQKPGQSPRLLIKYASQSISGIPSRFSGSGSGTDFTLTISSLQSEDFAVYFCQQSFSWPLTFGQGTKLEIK"
  Recorded Result: 31300

Look up Top (MFI): 30H9B8F9.p1.z8 hIgG1 (antibody, V domains shown, humanized hIgG1) VH: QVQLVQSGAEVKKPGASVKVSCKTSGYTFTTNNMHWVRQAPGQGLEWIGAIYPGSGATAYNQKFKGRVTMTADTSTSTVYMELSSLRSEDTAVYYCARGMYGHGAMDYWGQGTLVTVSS VL: DIVMTQSPSFLSASVGDRVTITCKASQDVGTAVAWYQQKPGKSPKLLIYWATTRHSGVPDRFTGSGSGTDFIFTISSVQPEDFATYFCQQYSSNPLTFGAGTKLEIK
26200

Look up Top (MFI): 62G10E4G8.p3.z4 hIgG1 (antibody, V domains shown, humanized hIgG1) VH: QVQLVQSGAEVKKPGASVKVSCKASGYTFPSYITHWVRQAPGQGLEWMGAIYPGNADTSYIQKFKGRVTMTRDTSTSTVYMELSSLRSEDTAVYYCARGTYGTSAWFTYWGQGTLVTVSS VL: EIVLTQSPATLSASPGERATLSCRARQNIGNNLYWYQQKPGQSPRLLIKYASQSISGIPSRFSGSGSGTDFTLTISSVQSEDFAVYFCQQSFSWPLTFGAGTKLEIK
29900

Look up Top (MFI): 62G10E4G8.p3.z7 hIgG1 (antibody, V domains shown, humanized hIgG1) VH: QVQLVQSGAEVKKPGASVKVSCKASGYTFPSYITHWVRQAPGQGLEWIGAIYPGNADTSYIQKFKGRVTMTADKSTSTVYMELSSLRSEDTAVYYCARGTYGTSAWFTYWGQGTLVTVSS VL: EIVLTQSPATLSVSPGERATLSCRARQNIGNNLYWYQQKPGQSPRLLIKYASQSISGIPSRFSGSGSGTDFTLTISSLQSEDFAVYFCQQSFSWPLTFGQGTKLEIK
26800

Look up Top (MFI): 30H9B8F9.p1.z1 hIgG1 (antibody, V domains shown, humanized hIgG1) VH: QVQLVQSGAEVKKPGASVKVSCKASGYTFTTNNMHWVRQAPGQGLEWMGAIYPGSGATAYNQKFKGRVTMTRDTSTSTVYMELSSLRSEDTAVYYCASGMYGHGAMDYWGQGTLVTVSS VL: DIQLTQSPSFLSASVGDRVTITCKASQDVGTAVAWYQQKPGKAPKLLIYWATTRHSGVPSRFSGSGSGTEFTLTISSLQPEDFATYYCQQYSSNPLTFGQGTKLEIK
27100

Look up Top (MFI): 62G10E4G8 VH_P3/VL hIgG1 (antibody, V domains shown, PTM-derisked chimeric, hIgG1; that P3 is the NA version follows from the humanized .p3 chains; also called 62G10E4G8.p3 hIgG1) VH: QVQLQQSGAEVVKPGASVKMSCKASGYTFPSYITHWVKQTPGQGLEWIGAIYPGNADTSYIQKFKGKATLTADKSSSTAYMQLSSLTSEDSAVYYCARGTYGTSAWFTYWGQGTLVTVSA VL: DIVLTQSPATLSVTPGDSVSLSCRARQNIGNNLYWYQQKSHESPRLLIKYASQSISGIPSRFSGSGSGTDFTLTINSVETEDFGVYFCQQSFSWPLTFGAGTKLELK
30300

Look up Top (MFI): 30H9B8F9.p1.z6 hIgG1 (antibody, V domains shown, humanized hIgG1) VH: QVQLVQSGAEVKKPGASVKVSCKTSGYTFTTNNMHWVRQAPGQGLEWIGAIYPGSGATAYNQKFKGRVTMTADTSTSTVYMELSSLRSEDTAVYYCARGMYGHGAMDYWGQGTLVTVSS VL: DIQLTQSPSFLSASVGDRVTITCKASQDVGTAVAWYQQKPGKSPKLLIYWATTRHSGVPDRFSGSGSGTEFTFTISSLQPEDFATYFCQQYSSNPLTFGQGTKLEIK
28400
